The reader will find reported Normal melting temperature values listed item by item below.
experimental-conditions: Crystal; DTA
Kindly provide the numeric value in °C only, without the unit symbol.

Examples from the recorded data:
CCCCCCCCCCCCCCCC(=O)O : 64.07
CCCCCCCCCCCCCC(=O)O : 55.73
CCCCCCCC(=O)O : 16.48

Lookup result for `CCCCCCCCCCCC(=O)O` ; measured Normal melting temperature: 44.92

Given item `CCCCCCCCCCCCCCCCCC(=O)O` , the value recorded as its Normal melting temperature is 70.83

Per the record, `CCCCCCCCCC(=O)O` has Normal melting temperature of 32.31
